Data origin, for the record: patent US20230382904A1

Consider the following log10 of IC50 values measured on DLK (Homo sapiens (Human)).
Sequence (Q12852 1-520): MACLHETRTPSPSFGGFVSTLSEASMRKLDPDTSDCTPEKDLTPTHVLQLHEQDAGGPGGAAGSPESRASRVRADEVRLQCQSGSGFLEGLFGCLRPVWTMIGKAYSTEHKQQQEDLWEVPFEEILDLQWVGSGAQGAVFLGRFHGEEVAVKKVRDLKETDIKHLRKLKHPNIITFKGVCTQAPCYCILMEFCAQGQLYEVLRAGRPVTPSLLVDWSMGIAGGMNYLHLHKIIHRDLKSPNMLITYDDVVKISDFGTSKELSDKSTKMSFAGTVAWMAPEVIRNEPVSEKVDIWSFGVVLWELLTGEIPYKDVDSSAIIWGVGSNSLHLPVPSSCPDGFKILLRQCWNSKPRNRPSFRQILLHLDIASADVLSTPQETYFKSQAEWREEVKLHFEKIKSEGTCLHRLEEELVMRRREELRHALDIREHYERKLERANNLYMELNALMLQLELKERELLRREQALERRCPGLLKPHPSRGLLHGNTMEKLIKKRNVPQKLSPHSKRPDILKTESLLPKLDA
READOUT_TYPE: log10 of IC50 (log10 of the value in nM)

[
  {
    "COMPOUND": "Cn1cnc(CNC(=O)c2cc(-c3ccc4nc(N)nn4c3)cs2)c1 [Compound 251]",
    "READOUT_TYPE": "log10 of IC50",
    "RESULT_NUMBER": 3.29
  },
  {
    "COMPOUND": "CC(C)NC(=O)c1cc(-c2csc(C(=O)N[C@@H](C)c3ccc(C(F)(F)F)cc3)c2)cn2nc(N)nc12 [Compound 83]",
    "READOUT_TYPE": "log10 of IC50",
    "RESULT_NUMBER": 1.86
  },
  {
    "COMPOUND": "COc1ccc2c(c1)CN(C(=O)c1cc(-c3ccc4nc(N)nn4c3)cs1)C2 [Compound 237]",
    "READOUT_TYPE": "log10 of IC50",
    "RESULT_NUMBER": 4.08
  },
  {
    "COMPOUND": "CCNC(=O)c1cc(-c2csc(C(=O)NCc3cccc(OC)c3)c2)cn2nc(N)nc12 [Compound 6]",
    "READOUT_TYPE": "log10 of IC50",
    "RESULT_NUMBER": 1.92
  },
  {
    "COMPOUND": "Nc1nc2c(C(=O)NC3CNC(=O)C3)cc(-c3csc(C(=O)NCc4ccccc4)c3)cn2n1 (stereo not drawn) [Compound 38]",
    "READOUT_TYPE": "log10 of IC50",
    "RESULT_NUMBER": 1.23
  },
  {
    "COMPOUND": "Nc1nc2ccc(-c3csc(C(=O)NCc4cccc(Cl)c4)c3)cn2n1 [Compound 193]",
    "READOUT_TYPE": "log10 of IC50",
    "RESULT_NUMBER": 2.79
  },
  {
    "COMPOUND": "CCNS(=O)(=O)c1cc(-c2csc(C(=O)N[C@@H](C)c3ccc(F)cc3)c2)cn2nc(N)nc12 [Compound 385]",
    "READOUT_TYPE": "log10 of IC50",
    "RESULT_NUMBER": 4.04
  },
  {
    "COMPOUND": "CC(C)NC(=O)c1cc(-c2csc(C(=O)N(C)[C@@H](C)c3ccc(F)cc3)c2)cn2nc(N)nc12 [Compound 99]",
    "READOUT_TYPE": "log10 of IC50",
    "RESULT_NUMBER": 2.52
  },
  {
    "COMPOUND": "CCNC(=O)c1cc(-c2csc(C(=O)NCc3ccc(F)cc3)c2)cc2nc(N)nn12 [Compound 157]",
    "READOUT_TYPE": "log10 of IC50",
    "RESULT_NUMBER": 2.26
  },
  {
    "COMPOUND": "Nc1nc2ccc(-c3csc(C(=O)NCc4ccccc4C(F)(F)F)c3)cn2n1 [Compound 220]",
    "READOUT_TYPE": "log10 of IC50",
    "RESULT_NUMBER": 2.76
  },
  {
    "COMPOUND": "NC(=O)c1cc(-c2csc(C(=O)NCc3ccc(F)cc3)c2)cn2nc(N)nc12 [Compound 42]",
    "READOUT_TYPE": "log10 of IC50",
    "RESULT_NUMBER": 1.85
  },
  {
    "COMPOUND": "Nc1nc2ccc(-c3csc(C(=O)NC4CCOc5ccc(F)cc54)c3)cn2n1 (stereo not drawn) [Compound 315]",
    "READOUT_TYPE": "log10 of IC50",
    "RESULT_NUMBER": 2.11
  },
  {
    "COMPOUND": "C[C@H](NC(=O)c1cc(-c2cc(C(F)(F)F)c3nc(N)nn3c2)cs1)c1ccc(F)cc1 [Compound 377]",
    "READOUT_TYPE": "log10 of IC50",
    "RESULT_NUMBER": 2.32
  },
  {
    "COMPOUND": "COC[C@H](C)NC(=O)c1cc(-c2csc(C(=O)NCc3ccc(F)cc3)c2)cn2nc(N)nc12 [Compound 68]",
    "READOUT_TYPE": "log10 of IC50",
    "RESULT_NUMBER": 2.48
  },
  {
    "COMPOUND": "Nc1nc2c(F)cc(-c3csc(C(=O)NCc4ccc(F)cc4)c3)cn2n1 [Compound 382]",
    "READOUT_TYPE": "log10 of IC50",
    "RESULT_NUMBER": 2.49
  },
  {
    "COMPOUND": "CC[C@H](NC(=O)c1cc(-c2ccc3nc(N)nn3c2)cs1)c1ccccc1 [Compound 324]",
    "READOUT_TYPE": "log10 of IC50",
    "RESULT_NUMBER": 1.79
  },
  {
    "COMPOUND": "COCCNC(=O)c1cc(-c2csc(C(=O)NCc3ccc(F)cc3)c2)cn2nc(N)nc12 [Compound 24]",
    "READOUT_TYPE": "log10 of IC50",
    "RESULT_NUMBER": 1.84
  },
  {
    "COMPOUND": "Nc1nc2ccc(-c3csc(C(=O)NCc4ccccc4)c3)cn2n1 [Compound 168]",
    "READOUT_TYPE": "log10 of IC50",
    "RESULT_NUMBER": 2.58
  },
  {
    "COMPOUND": "COc1cccc(CCNC(=O)c2cc(-c3ccc4nc(N)nn4c3)cs2)c1 [Compound 282]",
    "READOUT_TYPE": "log10 of IC50",
    "RESULT_NUMBER": 2.88
  },
  {
    "COMPOUND": "CC(C)NC(=O)c1cc(-c2csc(C(=O)NC3CC(C)(C)Oc4ccccc43)c2)cn2nc(N)nc12 (stereo not drawn) [Compound 121]",
    "READOUT_TYPE": "log10 of IC50",
    "RESULT_NUMBER": 1.23
  },
  {
    "COMPOUND": "COc1cccc(CNC(=O)c2cc(-c3ccc4nc(N)nn4c3)c(C)s2)c1 [Compound 311]",
    "READOUT_TYPE": "log10 of IC50",
    "RESULT_NUMBER": 4.28
  },
  {
    "COMPOUND": "CC(C)NC(=O)c1cc(-c2csc(C(=O)NC3CCCCC3)c2)cn2nc(N)nc12 [Compound 12]",
    "READOUT_TYPE": "log10 of IC50",
    "RESULT_NUMBER": 1.32
  },
  {
    "COMPOUND": "C[C@H](NC(=O)c1cc(-c2ccc3nc(N)nn3c2)cs1)c1cccc(Cl)c1 [Compound 265]",
    "READOUT_TYPE": "log10 of IC50",
    "RESULT_NUMBER": 2.11
  },
  {
    "COMPOUND": "Nc1nc2ccc(-c3csc(C(=O)N4CC5(COC5)C4)c3)cn2n1 [Compound 163]",
    "READOUT_TYPE": "log10 of IC50",
    "RESULT_NUMBER": 4.08
  },
  {
    "COMPOUND": "Nc1nc2ccc(-c3csc(C(=O)Nc4ccccc4Cl)c3)cn2n1 [Compound 224]",
    "READOUT_TYPE": "log10 of IC50",
    "RESULT_NUMBER": 3.22
  },
  {
    "COMPOUND": "CC(C)(C)NC(=O)c1cc(-c2csc(C(=O)NC3CCCCC3)c2)cn2nc(N)nc12 [Compound 14]",
    "READOUT_TYPE": "log10 of IC50",
    "RESULT_NUMBER": 1.53
  },
  {
    "COMPOUND": "CC(C)(C)NC(=O)c1cc(-c2csc(C(=O)NCc3nc4ccccc4o3)c2)cn2nc(N)nc12 [Compound 23]",
    "READOUT_TYPE": "log10 of IC50",
    "RESULT_NUMBER": 2.48
  },
  {
    "COMPOUND": "CC(C)NC(=O)c1cc(-c2csc(C(=O)NC3CC(C)(C)Oc4ccccc43)c2)cn2nc(N)nc12 (stereo not drawn) [Compound 132]",
    "READOUT_TYPE": "log10 of IC50",
    "RESULT_NUMBER": 1.45
  },
  {
    "COMPOUND": "C[C@H](NC(=O)c1cc(-c2cc(C(=O)NC3CCC3)c3nc(N)nn3c2)cs1)c1ccc(C(F)(F)F)cc1 [Compound 92]",
    "READOUT_TYPE": "log10 of IC50",
    "RESULT_NUMBER": 1.74
  },
  {
    "COMPOUND": "C[C@H](NC(=O)c1cc(-c2cc(C(=O)NC3CNC(=O)C3)c3nc(N)nn3c2)cs1)c1ccccc1 (single isomer, unassigned) [Compound 54]",
    "READOUT_TYPE": "log10 of IC50",
    "RESULT_NUMBER": 0.36
  }
]
